system: Plasmodium falciparum; assay: Antiplasmodial activity chloroquine-sensitive Plasmodium falciparum 3D7 infected in human A+ erythrocytes assessed as reduction of [3H]hypoxanthine incorporation after 24 hrs by scintillation counting; assay type: functional, organism-based
pIC50: −log10 of the molar value.
Result Type: pIC50

{"Compound": "CCN(CC)C(c1cccc(Nc2ccnc3cc(Cl)ccc23)c1)c1nnnn1C(C)(C)C (stereo not given)", "System Under Test": "Plasmodium falciparum", "Result Type": "pIC50", "Recorded Value": 7.00}
{"Compound": "Clc1ccc2c(Nc3cccc(C(c4nnn[nH]4)N4CCCC4)c3)ccnc2c1 (stereo not given)", "System Under Test": "Plasmodium falciparum", "Result Type": "pIC50", "Recorded Value": 5.96}
{"Compound": "CN(C)C(c1ccc(Nc2ccnc3cc(Cl)ccc23)cc1)c1nnnn1C(C)(C)C (stereo not given)", "System Under Test": "Plasmodium falciparum", "Result Type": "pIC50", "Recorded Value": 7.92}
{"Compound": "CC(C)(C)n1nnnc1C(c1cccc(Nc2ccnc3cc(Cl)ccc23)c1)N1CCCCC1 (stereo not given)", "System Under Test": "Plasmodium falciparum", "Result Type": "pIC50", "Recorded Value": 7.30}
{"Compound": "Clc1ccc2c(Nc3cccc(C(c4nnn[nH]4)N4CCOCC4)c3)ccnc2c1 (stereo not given)", "System Under Test": "Plasmodium falciparum", "Result Type": "pIC50", "Recorded Value": 5.68}
{"Compound": "CN(C)C(c1cccc(Nc2ccnc3cc(Cl)ccc23)c1)c1nnnn1C(C)(C)C (stereo not given)", "System Under Test": "Plasmodium falciparum", "Result Type": "pIC50", "Recorded Value": 7.28}
{"Compound": "CCN(CC)C(c1cccc(Nc2ccnc3cc(Cl)ccc23)c1)c1nnnn1CCN1CCOCC1 (stereo not given)", "System Under Test": "Plasmodium falciparum", "Result Type": "pIC50", "Recorded Value": 7.52}
{"Compound": "Clc1ccc2c(Nc3cccc(C(c4nnn[nH]4)N4CCCCC4)c3)ccnc2c1 (stereo not given)", "System Under Test": "Plasmodium falciparum", "Result Type": "pIC50", "Recorded Value": 6.54}
{"Compound": "CC(C)(C)n1nnnc1C(c1cccc(Nc2ccnc3cc(Cl)ccc23)c1)N1CCOCC1 (stereo not given)", "System Under Test": "Plasmodium falciparum", "Result Type": "pIC50", "Recorded Value": 7.00}
{"Compound": "CCN(CC)Cc1cc(Nc2ccnc3cc(Cl)ccc23)ccc1O", "System Under Test": "Plasmodium falciparum", "Result Type": "pIC50", "Recorded Value": 9.00}
